Test system: HCT-116
EXPERIMENTAL PROTOCOL: Cytotoxicity against human HCT-116 cells assessed as reduction in cell viability measured after 24 hrs by MTT assay
Format: functional, cell-based
EXPERIMENTAL SETUP: HCT-116, 24 h
QUANTITY KIND: pIC50
pIC50 is a log-scale quantity: -log10 of the concentration expressed in molar.

q: HCT-116 / pIC50 / CN1c2ccccc2C(=O)N2CCc3c(n(C(=O)c4ccc(Cl)cc4)c4ccc(O)cc34)C21 (stereo unspecified) : value?
a: 7.30

---

EXPERIMENTAL PROTOCOL: Antiproliferative activity against human HUVEC cells
Assay type: toxicity, cell-based
QUANTITY KIND: IC50 (µM)
# number only, unit µM dropped from output

q: Consider the molecule CN1c2ccccc2C(=O)N2CCc3c([nH]c4ccc(OC(=O)CCCC(=O)Oc5ccc6[nH]c7c(c6c5)CCN5C(=O)c6ccccc6N(C)C75)cc34)C21 (configuration not stated) and give its measured IC50.
a: 0.58

q: Entry under review: CN1c2ccccc2C(=O)N2CCc3c([nH]c4ccc(OC(=O)CCC(=O)Oc5ccc6[nH]c7c(c6c5)CCN5C(=O)c6ccccc6N(C)C75)cc34)C21 (configuration not stated) . Reported IC50?
a: 0.21

---

QUANTITY KIND: IC50 (nM)
State just the number; it will be interpreted in nM.

q: GET /values?readout=IC50&system=Histone deacetylase 2 (Homo sapiens, UniProt Q92769)&item= CN1c2ccc(NCc3ccc(/C=C/C(=O)NO)cc3)cc2C(=O)N2CCc3c([nH]c4ccc(O)cc34)C21 (stereo unspecified)
a: 230

---

Test system: HCT-116
EXPERIMENTAL PROTOCOL: Antiproliferative activity against human HCT-116 cells
Type: functional, cell-based
For each of the molecules below, state its IC50.

q: Report IC50 for CN1c2ccc(NCC3CCN(c4ncc(C(=O)NO)cn4)CC3)cc2C(=O)N2CCc3c([nH]c4ccc(O)cc34)C21 (stereo not given) tested on HCT-116.
a: 230 nM

q: // map CN1c2ccccc2C(=O)N2CCc3c([nH]c4ccc(O)cc34)C21 (stereo not given) to recorded IC50 (system: HCT-116)
a: < 3 nM

q: I'm curious: which IC50 was measured for CN1c2ccccc2C(=O)N2CCc3c([nH]c4ccc(OC(=O)CCCC(=O)Oc5ccc6[nH]c7c(c6c5)CCN5C(=O)c6ccccc6N(C)C75)cc34)C21 (stereo not given) tested on HCT-116?
a: 32 nM

q: Observed IC50 on HCT-116 for CN1c2ccccc2C(=O)N2CCc3c([nH]c4ccc(OC(=O)CCC(=O)Oc5ccc6[nH]c7c(c6c5)CCN5C(=O)c6ccccc6N(C)C75)cc34)C21 (stereo not given) , please.
a: 32 nM

q: What measured IC50 is associated with CN1c2ccc(NCc3ccc(/C=C/C(=O)NO)cc3)cc2C(=O)N2CCc3c([nH]c4ccc(O)cc34)C21 (stereo not given) on HCT-116?
a: 180 nM

---

Tested on: HCT-15
EXPERIMENTAL PROTOCOL: Cytotoxicity against human HCT-15 cells assessed as reduction in cell viability incubated for 48 hrs by MTT assay
Type: functional, cell-based
EXPERIMENTAL SETUP: HCT-15, 48 h
QUANTITY KIND: IC50

q: Return reported IC50; argument: COCCCCn1c2c(c3ccccc31)CCN1C(=O)c3ccccc3N(C)C21 (stereo unspecified)
a: < 2000 nM

---

Tested on: PC-9
EXPERIMENTAL PROTOCOL: Cytotoxicity against human PC-9 cells assessed as reduction in cell viability incubated for 72 hrs by MTT assay
Assay type: functional, cell-based
EXPERIMENTAL SETUP: PC-9, 72 h
QUANTITY KIND: pIC50
Remember, pIC50 is on a log scale: it is -log10 of the molar concentration.

q: Data request, read-out pIC50, for Cc1cc2c(s1)N(C)C1c3[nH]c4ccccc4c3CCN1C2=O (stereo unspecified)
a: 5.02

---

Assignment: determine reported pIC50 for the given compounds.
Test system: MDA-MB-435
EXPERIMENTAL PROTOCOL: Cytotoxicity against human MDA-MB-435 cells assessed as reduction in cell viability incubated for 72 hrs by MTT assay
Assay type: functional, cell-based
EXPERIMENTAL SETUP: MDA-MB-435, 72 h
// returns pIC50 (minus log10 of molar concentration), number only

q: Form: Entry = CN1c2ccc(-c3ccnc(N4CCNCC4)c3)cc2C(=O)N2CCc3c([nH]c4ccccc34)C21 (configuration not stated) | System = MDA-MB-435 | pIC50 = ____
a: 5.56

q: Form: Entry = CN1c2ccc(NC(=O)CBr)cc2C(=O)N2CCc3c([nH]c4ccccc34)C21 (configuration not stated) | System = MDA-MB-435 | pIC50 = ____
a: 4.64

---

Test system: A549
EXPERIMENTAL PROTOCOL: Cytotoxicity against human A549 cells assessed as reduction in cell viability measured after 24 hrs by MTT assay
Format: functional, cell-based
EXPERIMENTAL SETUP: A549, 24 h
QUANTITY KIND: pIC50
pIC50 here: minus log base 10 of the concentration, concentration in moles per litre.

q: State the recorded pIC50 for this entry: CN1c2ccccc2C(=O)N2CCc3c(n(C(=O)c4ccc(Cl)cc4)c4ccc(O)cc34)C21 (stereo unspecified)
a: 4.58

---

EXPERIMENTAL PROTOCOL: Solubility of compound in water incubated for 24 hrs by HPLC-UV analysis
Format: physicochemical
QUANTITY KIND: solubility at 24 h (µg/mL)
# number only, unit µg/mL dropped from output

q: Any idea what solubility at 24 h was measured for CN1c2ccccc2C(=O)N2CCc3c([nH]c4ccc(N)cc34)C21 (stereo unspecified) ?
a: 10

---

System: SF-268
EXPERIMENTAL PROTOCOL: Cytotoxicity against human SF-268 cells assessed as reduction in cell viability incubated for 48 hrs by MTT assay
Type: functional, cell-based
EXPERIMENTAL SETUP: SF-268, 48 h
pIC50: −log10 of the molar value.
QUANTITY KIND: pIC50

q: Need pIC50, item COCCCCn1c2c(c3ccccc31)CCN1C(=O)c3ccccc3N(C)C21 (stereo unspecified)
a: > 5.70

Values from ChEMBL document CHEMBL5331086
